experiment: NCI Yeast Anticancer Drug Screen. Data for the sgs1 mgt1 strain (AID 161);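 also: 0% = growth of cultures given vehicle only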
assay-setup: S. cerevisiae sgs1 mgt1 strain, at 50.0 µM, hits give high values
Compounds without any hit were thinned out: in the full panel of roughly 79,000, 15% have a hit.
growth inhibition overview
Give a bare numeral; the unit % is implied.

Example entries and their recorded answers appear below.
> print(dat)
                                   compound  readout.number
1  COc1cc(NCc2ccc3nc(N)nc(N)c3c2C)cc(OC)c1OC             0.6
2              NC(=O)N1c2ccccc2C=Cc2ccccc21            15.4
3          Nc1ccc(CCl)cc1Cc1c(O)ccc2ccccc12            70.3
4  CN(C)CC1CCCc2ccccc2C1=O (centres undefined)            50.3
5     CCNc1ccc2c(c1)C(=O)N(OS(C)(=O)=O)C2=O            85.6

Lookup: growth inhibition lookup needed for `Cc1ccc(Nc2c3c(c(C#N)c4nc5ccccc5n24)CCCC3)cc1` , thanks.
Found: 74.5

Lookup: Report growth inhibition for CCN(CC)CC(O)C1CCC(c2ccccc2)CC1 (centres undefined) please.
Found: 92.7

Lookup: Which growth inhibition value belongs to `O=S(=O)(c1cc(Cl)ccc1O)c1cc(Cl)ccc1O` ?
Found: 99.5
